# Target: Rho-kinase (ROCK1) (Homo sapiens)
# Protocol description: Rho-kinase (ROCK1) inhibition
# Type: biochemical
# Condition set: Table 5; @ 100 μM
Observable: % Inhibition (@ 100 μM)

                                   compound               observable      value_reported
0  O=C(Nc1cccc2cnccc12)N1CCCN(Cc2ccccc2)CC1 [IP-IV-105]  % Inhibition (@ 100 μM)  −0.85 (@ 100 μM) %
1       O=C(CN1CCCNCC1)Nc1ccncc1 [IP-IV-81]  % Inhibition (@ 100 μM)  30.61 (@ 100 μM) %
2  CCOC(=O)C1CCN(CC(=O)Nc2ccncc2)CC1 [IP-IV-39]  % Inhibition (@ 100 μM)  −1.46 (@ 100 μM) %

Alright, here's another compound for you.
Problem: Suppose we examine the compound O=C(CN1CCCN(Cc2ccccc2)CC1)Nc1ccncc1 [IP-IV-73] ; what % Inhibition (@ 100 μM) value has been reported?
Result: 13.31 (@ 100 μM) %

###

# Target: Rho-kinase (ROCK1) (Homo sapiens, UniProt Q13464)
# Sequence (Q13464 whole entry, species assumed): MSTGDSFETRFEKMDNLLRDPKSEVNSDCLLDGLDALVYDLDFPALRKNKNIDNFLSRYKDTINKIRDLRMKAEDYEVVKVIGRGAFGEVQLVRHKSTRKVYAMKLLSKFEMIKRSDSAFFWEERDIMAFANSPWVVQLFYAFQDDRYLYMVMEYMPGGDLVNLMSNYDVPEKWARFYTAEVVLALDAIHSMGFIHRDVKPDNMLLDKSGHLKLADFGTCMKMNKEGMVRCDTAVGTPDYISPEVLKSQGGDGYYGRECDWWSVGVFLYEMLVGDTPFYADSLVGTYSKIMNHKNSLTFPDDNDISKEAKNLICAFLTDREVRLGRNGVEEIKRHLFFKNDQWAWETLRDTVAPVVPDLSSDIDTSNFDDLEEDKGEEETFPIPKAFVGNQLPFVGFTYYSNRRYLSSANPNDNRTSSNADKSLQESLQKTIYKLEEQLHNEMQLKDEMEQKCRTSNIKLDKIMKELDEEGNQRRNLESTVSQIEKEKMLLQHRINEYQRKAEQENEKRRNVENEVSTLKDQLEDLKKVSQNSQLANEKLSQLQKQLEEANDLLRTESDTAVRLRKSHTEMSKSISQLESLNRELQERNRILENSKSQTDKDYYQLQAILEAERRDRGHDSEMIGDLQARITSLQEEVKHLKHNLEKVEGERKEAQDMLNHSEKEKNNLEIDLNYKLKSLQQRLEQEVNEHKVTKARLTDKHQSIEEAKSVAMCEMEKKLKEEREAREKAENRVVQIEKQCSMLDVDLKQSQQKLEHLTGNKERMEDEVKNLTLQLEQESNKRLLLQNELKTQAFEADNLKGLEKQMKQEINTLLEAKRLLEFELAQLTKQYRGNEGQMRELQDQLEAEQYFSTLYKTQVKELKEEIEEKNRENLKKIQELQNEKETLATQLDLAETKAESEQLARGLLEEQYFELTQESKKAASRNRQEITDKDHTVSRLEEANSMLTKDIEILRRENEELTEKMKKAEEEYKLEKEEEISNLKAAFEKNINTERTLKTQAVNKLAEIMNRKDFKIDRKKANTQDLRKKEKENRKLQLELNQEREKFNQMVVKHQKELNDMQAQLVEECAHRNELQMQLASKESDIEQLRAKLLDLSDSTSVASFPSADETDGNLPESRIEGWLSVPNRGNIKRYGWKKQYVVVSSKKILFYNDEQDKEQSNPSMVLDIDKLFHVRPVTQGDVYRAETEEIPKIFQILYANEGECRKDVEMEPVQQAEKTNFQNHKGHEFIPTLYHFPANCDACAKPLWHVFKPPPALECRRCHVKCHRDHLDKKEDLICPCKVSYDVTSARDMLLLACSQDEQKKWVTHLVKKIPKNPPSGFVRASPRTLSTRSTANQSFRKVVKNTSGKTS
# Protocol description: Rho-kinase (ROCK1) inhibition
# Format: biochemical
# Condition set: Table 3; first number of the cell, concentration not given
The molecules listed here are annotated with their Inhibition.
Just the number, please.

>>> df
                                   molecule  value_reported
0  CC(C)[C@H]1CN(C(=O)c2cccc3cnccc23)CCN1C(=O)OC(C)(C)C [IP-IV-89]              82

Problem: Reported Inhibition, molecule CC(C)[C@H]1CN(C(=O)c2cccc3cnccc23)CCN1 [IP-IV-103] : ____
Result: 81
